- assayNotes: Solubility test
- testParameters: 50 mmol/L glycine buffer solution (pH 2.0), room temperature, 24 hours shaking
Below, each entry is listed with its recorded Solubility in pH 2.0 buffer solution.
Note: unit mg/mL is implicit; provide only the numeric part.

Past entries and their recorded results:
compound="CC(=O)c1cc2c(OC(=O)NCCCCCN)c3ccccc3c(O)c2o1.Cl [Example 72]" readoutvalue=2.4
compound="CC(=O)c1cc2c(O)c3ccccc3c(OC(=O)NCCNCCS(C)(=O)=O)c2o1.Cl [Example 81]" readoutvalue=0.9
compound="CC(=O)c1cc2c(OC(=O)NCCCCCCCCN)c3ccccc3c(O)c2o1.Cl [Example 75]" readoutvalue=0.1
compound="CC(=O)c1cc2c(OC(=O)NCCNCC(=O)O)c3ccccc3c(O)c2o1.Cl [Example 71]" readoutvalue=0.1

Okay, now this compound:
Query: Report Solubility in pH 2.0 buffer solution for CC(=O)c1cc2c(OC(=O)NCCCNCC(=O)O)c3ccccc3c(O)c2o1.Cl [Example 77] please.
Response: 0.5

###

Below, each entry is listed with its recorded % Measurement value (conversion rate to 2-acetylnaphtho[2,3-b]furan-4,9-dione).
- assayNotes: Evaluation of a conversion rate to 2-acetylnaphtho[2,3-b]furan-4,9-dione in human plasma
- Type: in vitro ADME
- testParameters: Human plasma, 1 umol/L, 37° C., incubation time 120 min
Note: unit % is implicit; provide only the numeric part.

Past entries and their recorded results:
molecule=COC(=O)NCCNCCNC(=O)Oc1c2ccccc2c(O)c2cc(C(C)=O)oc12.Cl readoutvalue=63
molecule="CC(=O)c1cc2c(OC(=O)NC3CCNC3)c3ccccc3c(OC(=O)NC3CCNC3)c2o1.Cl.Cl (centres unmarked)" readoutvalue=71
molecule=CC(=O)c1cc2c(OC(=O)NCCCNCC(=O)NCC(=O)O)c3ccccc3c(OC(=O)NCCCNCC(=O)NCC(=O)O)c2o1.Cl.Cl readoutvalue=57
molecule=CC(=O)c1cc2c(OC(=O)NCCCNCCS(=O)(=O)N(C)C)c3ccccc3c(OC(=O)NCCCNCCS(=O)(=O)N(C)C)c2o1.Cl.Cl readoutvalue=81
molecule="CC(=O)c1cc2c(OC(=O)NC3CCCNC3)c3ccccc3c(OC(=O)NC3CCCNC3)c2o1.Cl.Cl (centres unmarked)" readoutvalue=77
molecule=CC(=O)c1cc2c(OC(=O)NCCNCC(=O)N3CCC3)c3ccccc3c(OC(=O)NCCNCC(=O)N3CCC3)c2o1.Cl.Cl readoutvalue=65
molecule=CC(=O)c1cc2c(OC(=O)NCCCCCCCN)c3ccccc3c(O)c2o1.Cl readoutvalue=88
molecule=CC(=O)c1cc2c(O)c3ccccc3c(OC(=O)NCCNCC(=O)NCC(=O)O)c2o1.Cl readoutvalue=67
molecule=CC(=O)c1cc2c(OC(=O)NCCNCC(F)(F)F)c3ccccc3c(OC(=O)NCCNCC(F)(F)F)c2o1.Cl.Cl readoutvalue=84
molecule=CC(=O)c1cc2c(OC(=O)NCCNCC(=O)O)c3ccccc3c(O)c2o1.Cl readoutvalue=61

Okay, now this molecule:
Query: Report % Measurement value (conversion rate to 2-acetylnaphtho[2,3-b]furan-4,9-dione) for "COC(=O)[C@@H](N)CCNC(=O)Oc1c2ccccc2c(OC(=O)NCC[C@H](N)C(=O)OC)c2oc(C(C)=O)cc12.Cl.Cl" please.
Response: 100

###

- assayNotes: Evaluation of a conversion rate to 2-acetylnaphtho[2,3-b]furan-4,9-dione in CD1 mouse plasma
- Assay type: in vitro ADME
- testParameters: CD1 mouse plasma, 1 umol/L, 37° C., incubation time 120 min
- Description: For test compounds, the decrease rate of the test compounds and the conversion rate thereof to 2-acetylnaphtho[2,3-b]furan-4,9-dione in human plasma, CD1 mouse plasma, and pH 7.4 phosphate buffer solution were measured. […] Measurement values are calculated from the peak area ratio in LC-MS between an internal standard material, phenytoin and an active form, 2-acetylnaphtho[2,3-b]furan-4,9-dione, and are expressed in %. […]
Below, each entry is listed with its recorded % Measurement value (conversion rate to 2-acetylnaphtho[2,3-b]furan-4,9-dione).
Note: unit % is implicit; provide only the numeric part.

Past entries and their recorded results:
entrysmiles=CC(=O)c1cc2c(OC(=O)NCCCCCCCN)c3ccccc3c(O)c2o1.Cl readoutvalue=63
entrysmiles=CC(=O)c1cc2c(OC(=O)NCCCCCN)c3ccccc3c(O)c2o1.Cl readoutvalue=42

Okay, now this compound:
Query: Report % Measurement value (conversion rate to 2-acetylnaphtho[2,3-b]furan-4,9-dione) for "CC(=O)c1cc2c(OC(=O)NCCCCCNCC(=O)O)c3ccccc3c(O)c2o1.Cl" please.
Response: 71

###

Below, each entry is listed with its recorded % Measurement value (conversion rate to 2-acetylnaphtho[2,3-b]furan-4,9-dione).
- assayNotes: Evaluation of a conversion rate to 2-acetylnaphtho[2,3-b]furan-4,9-dione in pH 7.4 phosphate buffer solution
- Format: physicochemical
- testParameters: Phosphate buffer solution (pH 7.4), 1 umol/L, 37° C., incubation time 120 min
Note: unit % is implicit; provide only the numeric part.

compound=CC(=O)c1cc2c(OC(=O)NCCCCCCCN)c3ccccc3c(OC(=O)NCCCCCCCN)c2o1.Cl.Cl readoutvalue=39
compound=CC(=O)c1cc2c(O)c3ccccc3c(OC(=O)NCCNCC(=O)N3CCC3)c2o1.Cl readoutvalue=37
compound=CC(=O)c1cc2c(OC(=O)NCC[C@H](N)C(=O)O)c3ccccc3c(OC(=O)NCC[C@H](N)C(=O)O)c2o1.Cl.Cl readoutvalue=63
compound=CC(=O)c1cc2c(OC(=O)NCCCCCCCN)c3ccccc3c(O)c2o1.Cl readoutvalue=66

Query: Report % Measurement value (conversion rate to 2-acetylnaphtho[2,3-b]furan-4,9-dione) for "CC(=O)c1cc2c(O)c3ccccc3c(OC(=O)NCCNCCOC(N)=O)c2o1.Cl" please.
Response: 36

Query: Report % Measurement value (conversion rate to 2-acetylnaphtho[2,3-b]furan-4,9-dione) for "CC(=O)c1cc2c(O)c3ccccc3c(OC(=O)NCCNCCS(=O)(=O)N(C)C)c2o1.Cl" please.
Response: 39

Query: Report % Measurement value (conversion rate to 2-acetylnaphtho[2,3-b]furan-4,9-dione) for CC(=O)c1cc2c(OC(=O)NCCNC(C)C(=O)O)c3ccccc3c(OC(=O)NCCNC(C)C(=O)O)c2o1.Cl.Cl (stereo not shown) please.
Response: 61

###

- assayNotes: Evaluation of a conversion rate to 2-acetylnaphtho[2,3-b]furan-4,9-dione in CD1 mouse plasma
- Type: in vitro ADME
- testParameters: CD1 mouse plasma, 1 umol/L, 37° C., incubation time 120 min
Output Met for records whose % Measurement value (conversion rate to 2-acetylnaphtho[2,3-b]furan-4,9-dione) is lower than 70%, Not met for records at or above 70%.

// below: answered molecules
entrysmiles=CC(=O)c1cc2c(OC(=O)NC3CCNCC3)c3ccccc3c(OC(=O)NC3CCNCC3)c2o1.Cl.Cl qualitativelabel="Not met"
entrysmiles=CC(=O)c1cc2c(OC(=O)NCCOCCN)c3ccccc3c(OC(=O)NCCOCCN)c2o1.Cl.Cl qualitativelabel="Not met"
entrysmiles=CC(=O)c1cc2c(OC(=O)NCCN)c3ccccc3c(O)c2o1.Cl qualitativelabel="Not met"
entrysmiles=CC(=O)c1cc2c(OC(=O)NC3CNC3)c3ccccc3c(OC(=O)NC3CNC3)c2o1.Cl.Cl qualitativelabel=Met
entrysmiles=CC(=O)c1cc2c(OC(=O)NCCCCCCCCN)c3ccccc3c(OC(=O)NCCCCCCCCN)c2o1.Cl.Cl qualitativelabel=Met
entrysmiles=CC(=O)c1cc2c(O)c3ccccc3c(OC(=O)NCCNCC(=O)NCC(=O)O)c2o1.Cl qualitativelabel=Met

We next turn to a different molecule, shown below.
Query: Item "CC(=O)c1cc2c(O)c3ccccc3c(OC(=O)NCCNCC(=O)O)c2o1.Cl" : % Measurement value (conversion rate to 2-acetylnaphtho[2,3-b]furan-4,9-dione) beneath 70%, strictly?
Response: Met

###

Below, each entry is listed with its recorded Solubility in pH 2.0 buffer solution.
- assayNotes: Solubility test
- testParameters: 50 mmol/L glycine buffer solution (pH 2.0), room temperature, 24 hours shaking

Past entries and their recorded results:
entrysmiles=CC(=O)c1cc2c(O)c3ccccc3c(OC(=O)NCCNCC(=O)NCC(=O)O)c2o1.Cl readoutvalue=">5.0 mg/mL"
entrysmiles=CC(=O)c1cc2c(OC(=O)NCCCNCCN)c3ccccc3c(OC(=O)NCCCNCCN)c2o1.Cl.Cl readoutvalue=">5.0 mg/mL"
entrysmiles=CC(=O)c1cc2c(OC(=O)NCCNCC(=O)N3CCC3)c3ccccc3c(OC(=O)NCCNCC(=O)N3CCC3)c2o1.Cl.Cl readoutvalue=">5.0 mg/mL"
entrysmiles=CC(=O)c1cc2c(OC(=O)NCCNCCF)c3ccccc3c(OC(=O)NCCNCCF)c2o1.Cl.Cl readoutvalue=">5.0 mg/mL"
entrysmiles=CC(=O)c1cc2c(O)c3ccccc3c(OC(=O)NCCCNCC(=O)NCC(=O)O)c2o1.Cl readoutvalue=">5.0 mg/mL"
entrysmiles=CC(=O)c1cc2c(O)c3ccccc3c(OC(=O)NCCCNCCOC(N)=O)c2o1.Cl readoutvalue="3.2 mg/mL"
entrysmiles=CC(=O)c1cc2c(O)c3ccccc3c(OC(=O)NCCNCCS(=O)(=O)N(C)C)c2o1.Cl readoutvalue="0.3 mg/mL"

Okay, now this molecule:
Query: Report Solubility in pH 2.0 buffer solution for "COC(=O)OCCNCCNC(=O)Oc1c2ccccc2c(O)c2cc(C(C)=O)oc12.Cl" please.
Response: 3.6 mg/mL
